# experimental.target: WT/R232 STING protein (Homo sapiens, UniProt Q86WV6, H232R)
# Sequence (Q86WV6 whole entry H232R): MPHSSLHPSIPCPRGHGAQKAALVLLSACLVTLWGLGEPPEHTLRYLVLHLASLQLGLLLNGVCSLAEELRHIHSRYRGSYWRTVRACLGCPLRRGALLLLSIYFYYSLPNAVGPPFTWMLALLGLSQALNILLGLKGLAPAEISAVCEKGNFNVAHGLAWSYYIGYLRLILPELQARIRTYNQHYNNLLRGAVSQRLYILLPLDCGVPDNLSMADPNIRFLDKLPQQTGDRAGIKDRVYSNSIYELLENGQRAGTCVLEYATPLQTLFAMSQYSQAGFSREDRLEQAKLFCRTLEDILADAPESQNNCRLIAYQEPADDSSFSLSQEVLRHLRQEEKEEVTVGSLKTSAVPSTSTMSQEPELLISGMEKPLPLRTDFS
# assay.comment: Luciferase reporter assay in HEK293T-hSTING-Luciferase cells (R232)
# test.parameters: 20 hr stimulation, EC50 range
pEC50: −log10 of the molar value.
# pEC50 values compiled below

Please review the following examples before continuing.
| compound | readout.kind | reported.value |
| --- | --- | --- |
| COc1cc(F)c(CN2C(=O)C(C)(C)c3ccc(C(=O)NCc4c(F)cc(F)cc4F)cc32)c(F)c1 [Example 64] | pEC50 | ≥ 6.00 |
| Cc1ncc(CNC(=O)c2ccc3c(c2)N(Cc2c(F)cccc2Cl)C(=O)C3(C)C)o1 [Example 31] | pEC50 | < 5.00 |
| Cn1cc(CN2C(=O)C(C)(C)c3ccc(C(=O)NCc4c(F)cc(F)cc4F)cc32)cn1 [Example 68] | pEC50 | 5.00 to 6.00 |
| CC1(C)C(=O)N(Cc2c(F)cccc2Cl)c2cc(C(=O)NCc3cccc4c3OCO4)ccc21 [Example 87] | pEC50 | < 5.00 |
| CC1(C)C(=O)N(Cc2c(F)cccc2Br)c2cc(C(=O)NCc3c(F)cc(F)cc3F)ccc21 [Example 108] | pEC50 | ≥ 6.00 |

What does the record list as pEC50 for CC1(C)C(=O)N(Cc2cc(F)cc(F)c2)c2nc(C(=O)NCCc3c(F)cc(F)cc3F)ccc21 [Example 190] ? < 5.00

What does the record list as pEC50 for Cc1ccnc(CNC(=O)c2ccc3c(c2)N(Cc2c(F)cccc2Cl)C(=O)C3(C)C)c1 [Example 32] ? < 5.00

What does the record list as pEC50 for CC1C(=O)N(Cc2c(F)cccc2Cl)c2cc(C(=O)NCc3c(F)cc(F)cc3F)ccc21 (centres unmarked) [Example 21] ? < 5.00
